- Test system: MS2 coat protein
- PROTOCOL: apparent KD of MS2 coat protein; designed switch direction (-1 OFF switch, 1 ON switch): -1; higher = weaker reporter binding
- CONDITION_CONTEXT: Eterna round: R95; input ligand: none

{"columns": ["SEQ", "apparent KD of MS2 coat protein"],
 "data": [
  ["AAUAAUAAGGAGGAUAUCGUAUCGGAAACGAUACGAGAAGGCCUAACAUGAGGAUCACCCAUGUUCCUCAAUAA [Fiskers Ex 6 - 2] (puzzle: Exclusion 6)", "311 nM"],
  ["AAGUACCGUCACGAUAGUGAUGGUACAGCAAGCAUGUAAACAUGAGGAUCACCCAUGUCCUCAAUUGCUCGUCUUAU [Sensor 3 - 70] (puzzle: Sensor v3, turn-off variant 2)", "764 nM"],
  ["CGUACUAACACGAAAGUGUUAGUACAAUAAGCUUGUGAAACAUGAGGAUCACCCAUGUCCUCAUAAGCUCGUCUUAA [salish99_TOv2_r3_006] (puzzle: Sensor v3, turn-off variant 2)", "12.1 nM"],
  ["GUGAGAUAGUUAGUGGACGACAUGAGGAUCACCCAUGUGAGGGAAAUGUUAAGGAGAAAGCUUUUUGCUCGUCUUUA [JR_SV3TOV1_Sub035] (puzzle: Sensor v3, turn-off variant 1)", "180 nM"],
  ["GUUAAACAUGAGGAUCACCCAUGUAAGGAUAUGCUGCGGUCGAGAUGAAGUGACUGCAGCAGAAGGUACAAAUG [Mat - Mod of JL D60] (puzzle: Exclusion 1)", "133 nM"]
]}
